B1: C8orf76 (parent)
chain: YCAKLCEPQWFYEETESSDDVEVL

# Variants of: B1
# Assay Name: protein stability index of a GFP-peptide fusion (GPS, HEK-293T) (PSI 1-6); higher = more stable;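 note: lentivirally expressed fusions sorted by FACS into six bins by GFP to DsRed ratio, PSI derived from sequencing read proportions per bin multiplied by bin number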
# Experimental Conditions: c terminus: a fixed tail appended
Measured Metric: protein stability index

> print(dat)
    sequence.change  measured
 1             V21K      2.99
 2             E14N      2.37
 3             E14W      1.46
 4             F11A      3.01
 5             E16A      2.25
 6              P8E       3.1
 7             E22Q      2.61
 8             S17T      2.42
 9              C2M      3.62
10              A3D      3.48
11              A3G      2.01
12             T15E      2.72
13              C2L      2.94
14              L5G      2.99
15             L24R      2.78
16             W10G      4.02
17              C2D      4.96
18              C6R      2.21
19              P8I      1.58
20              K4V      3.05
21              K4A      2.54
22              L5F      2.29
23             T15V      2.17
24             E14D      2.36
25              Q9F      2.19
26             D20G      1.37
27             S18P       2.3
28             V23M      2.48
29             V21Q      2.53
30              C6Q      3.02
31             V21E      2.43
